Kindly supply the reported Inhibition % values for the records listed here.
Experimental target: Parkinson's disease protein 7 (PARK7/DJ1) (human)
Assay: primary screen, percent inhibition; higher = more effect of the substance
Protocol conditions: 100 µM
Hit rate of the full screen: of about 7,900 compounds, about 400 (5.1%) showed an effect of 50% or more. For the sample, strong results were picked, then their nearest neighbours and some compounds at random.
Record the value in %, omitting the unit from your answer.

Query: Consider the compound shown here: "Cc1conc1NS(=O)(=O)c1cccc(S(=O)(=O)F)c1" What is its recorded Inhibition %?
Result: 99

Query: What measured Inhibition % goes with "COc1ccc(C(=O)CCl)cc1" ?
Result: 3.52

Query: Could you share which Inhibition % value was measured for "Cc1cc(-n2c(C)cc(C(=O)CCl)c2C)no1" ?
Result: 7.75

Query: Fill in: Inhibition % of "CCn1nc(C)c(C(=O)CCl)n1" is ___
Result: 13.1

====

Would you kindly list Inhibition % for each of these compounds?
Experimental target: Parkinson's disease protein 7 (PARK7/DJ1) (human, UniProt Q99497)
Sequence (Q99497 whole entry, looked up): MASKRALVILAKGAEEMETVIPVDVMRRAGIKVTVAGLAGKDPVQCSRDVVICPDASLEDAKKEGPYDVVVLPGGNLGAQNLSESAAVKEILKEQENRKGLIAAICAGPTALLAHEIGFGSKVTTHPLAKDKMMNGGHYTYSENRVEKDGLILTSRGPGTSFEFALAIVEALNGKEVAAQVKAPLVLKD
Assay: primary screen, percent inhibition; higher = more effect of the substance
Protocol conditions: 100 µM
Description: The screen was conducted using the conditions as described above in 1536-well plates (Corning 3724) with a reaction volume of 8 μL per well. The compound library containing 7887 covalent fragments was purchased at Enamine Ltd. and received as 100 mM DMSO stocks in 384 well LDV Echo plates (Labcyte LP-0200). Stock solutions of 0.26 μM PARK7 and 80 nM JYQ-107 were prepared. […] After 2 h incubation, the FP signal was recorded on a BMG Labtech PHERAstar plate reader (λex/em 480/520 nm). […]
Screen size: about 7,900 compounds; about 400 (5.1%) showed an effect of 50% or more. The sample holds strong results, similar compounds and a random draw of the others, so the mix is not that of the screen.
Give just the numeric value; % need not be written.

Query: Fill in the blank: the reported Inhibition % of "ClCCc1cscn1" is ____.
Result: 5.31

Query: Entry under review: "CC(C)CNc1oc(Cc2ccccc2)nc1C#N" . Reported Inhibition %?
Result: 6.85

Query: Given the compound "C=CC(=O)N1CCC(OCC2CC2)CC1" , what is its reported Inhibition %?
Result: -0.254

Query: Looking for the measured Inhibition % of "Cl.O=C(CCl)c1c[nH]c2ncccc12" , can you help?
Result: 10.6

Query: What measured Inhibition % goes with "C=CC(=O)N(C)CC(=O)Nc1csc(C)n1" ?
Result: 7.47

Query: So what does the record say about Inhibition % for "O=C(CCl)c1cscn1" ?
Result: 101

Query: // returns reported Inhibition % for input "CCn1cc(S(=O)(=O)Oc2cccc(F)c2)nc1C"
Result: 3.67

Query: For the compound shown here, "C=CC(=O)NCC1CCN(c2ccncc2)CC1" , give the reported Inhibition %.
Result: 15.3

Query: Fill blank: measured Inhibition % of the compound "C=CC(=O)N1CC(C)(C)O[C@@]2(C[C@@H]3CC[C@H]2C3)C1" is ____.
Result: 10.3

====

Experimental target: Parkinson's disease protein 7 (PARK7/DJ1) (human, UniProt Q99497)
Assay: primary screen, percent inhibition; read as competition with a fluorescent probe by fluorescence polarization; higher = more effect of the substance
Protocol conditions: 100 µM
The whole screen tested about 7,900 compounds, of which about 400 (5.1%) showed an effect of 50% or more. Many of the other results were omitted from the sample, so strong results are more common in it than they were.
Classification field: enter Criterion met for Inhibition % values not below 50%, Criterion not met for values below it.

Query: Assess whether reported Inhibition % for "CN(C(=O)CCl)C1CCCCC1" sits at 50% or higher.
Result: Criterion met

Query: Hi, just wondering whether "CCN(c1ccc(C(=O)CCl)cc1)S(C)(=O)=O" shows Inhibition % of 50% or higher.
Result: Criterion met

Query: Please indicate if the recorded Inhibition % for "C=CC(=O)N1CCN(CC2CCOCC2)CC1" meets or exceeds 50%.
Result: Criterion not met

Query: Reported Inhibition % reaches at least 50% for "O=C(O)c1ccc(CS)c(F)c1" ?
Result: Criterion met

Query: Does Inhibition % meet or surpass 50% for "Cc1ncsc1C=C(C#N)C(=O)NCCc1ccccc1" ?
Result: Criterion not met

Query: Confirm if Inhibition % reported for the compound "CCc1nc(C(C#N)=Cc2cnn(C)c2)sc1C" is 50% or above.
Result: Criterion not met

Query: Hello, I need to know if CC(C#N)NS(=O)(=O)c1ccc(S(=O)(=O)F)cc1 (centres unmarked) has measured Inhibition % not below 50%. Thanks!
Result: Criterion not met

Query: # check: Inhibition % of "CN(CC12CC3CC(CC(C3)C1)C2)C(=O)CCl" is greater than or equal to 50%
Result: Criterion not met

Query: Does "Cc1ccc(C=C(C#N)S(C)(=O)=O)s1" have a reported Inhibition % of at least 50%?
Result: Criterion not met

Query: Could you please find out whether CC1CCC(N(C)C(=O)CCl)CC1 (centres unmarked) has Inhibition % that meets 50% or exceeds it?
Result: Criterion met

Query: Test whether the compound "N#CN(Cc1ccc(C(N)=O)cc1)c1ccc(F)cc1" records Inhibition % of 50% or higher.
Result: Criterion not met

Query: Check this compound for Inhibition % at or above 50%: CCC(C#N)NS(=O)(=O)c1ccc(S(=O)(=O)F)cc1 (centres unmarked)
Result: Criterion not met

Query: Item CCCC(C#N)NS(=O)(=O)c1cccc(S(=O)(=O)F)c1 (centres unmarked) with Inhibition % of 50% or above?
Result: Criterion met

Query: Textbook exercise: given the entry "O=C(CCl)N1CCN(S(=O)(=O)c2ccccc2)CC1" , state whether its Inhibition % is greater than or equal to 50%.
Result: Criterion not met

Query: Check if Inhibition % >= 50% (inclusive). Item: "Cc1cc(S(N)(=O)=O)cc(NC(=O)CCl)c1C"
Result: Criterion not met

Query: Does Inhibition % meet or surpass 50% for "C=CC(=O)N1CC(c2ccccc2)C1" ?
Result: Criterion not met
